The compounds listed here are annotated with their Plant response rating, Wheat.
Test system: wheat (Triticum aestivum)
Assay: Test A postemergence, wheat
Assay type: in vivo
Conditions: 125 g ai/ha, visual injury, 0 to 100 scale (0 no effect, 100 complete control), approximately 10 days

Completed entries (count: 6):
{"compound": "O=C1NCC(c2cccc(OCC3CC3)c2)C1C(=O)Nc1ccccc1F (centres unmarked)", "Plant response rating, Wheat": 0}
{"compound": "O=C1NCC(c2cccc(Oc3ncc(Cl)cn3)c2)C1C(=O)Nc1ccccc1F (centres unmarked)", "Plant response rating, Wheat": 0}
{"compound": "CN1CC(c2cccc(Sc3ccccc3)c2)C(C(=O)Nc2ccccc2F)C1=O (single isomer, unassigned)", "Plant response rating, Wheat": 0}
{"compound": "CN1CC(c2cccc(Oc3ccc(C(F)(F)F)cn3)c2)C(C(=O)Nc2ccccc2F)C1=O (single isomer, unassigned)", "Plant response rating, Wheat": 30}
{"compound": "CN1C[C@H](c2cccc(Oc3ccc(F)cn3)c2)[C@@H](C(=O)Nc2ccc(F)c(F)c2F)C1=O", "Plant response rating, Wheat": 40}
{"compound": "CN(C)N=Cc1cccc(C2CN(C)C(=O)C2C(=O)Nc2ccccc2F)c1 (centres unmarked)", "Plant response rating, Wheat": 0}

Incoming: For O=C1NCC(c2cccc(OCC3OCCO3)c2)C1C(=O)Nc1ccccc1C(F)(F)F (centres unmarked) , what is its reported Plant response rating, Wheat?
Outgoing: 0

Incoming: Fill blank: measured Plant response rating, Wheat of the compound O=C1NCC(c2cccc(OCc3ccccc3)c2)C1C(=O)Nc1ccccc1Cl (centres unmarked) is ____.
Outgoing: 0

---

Examples of compounds with documented Plant response rating, Foxtail, Giant follow.
Tested on: foxtail, giant (Setaria faberii)
Assay: Test A postemergence, giant foxtail
Format: in vivo
Details: 31 g ai/ha, 0 to 100 scale (0 no effect, 100 complete control)
API doc: respond with a numeric literal and nothing else, no unit.

{"compound": "CN1CC(c2cccc(Oc3ncc(F)cc3F)c2)C(C(=O)Nc2ccc(F)c(F)c2F)C1=O (single isomer, unassigned) [Compound 74]", "test_result": 70}

Incoming: Look at this compound and give its reported Plant response rating, Foxtail, Giant. CN1CC(c2cccc(Oc3ncc(F)cc3F)c2)C(C(=O)Nc2ccccc2F)C1=O (single isomer, unassigned) [Compound 72]
Outgoing: 80

Incoming: // lookup Plant response rating, Foxtail, Giant for CN1CC(c2cccc(Oc3ncc(F)cc3F)c2)C(C(=O)Nc2cccc(F)c2F)C1=O (single isomer, unassigned) [Compound 73]
Outgoing: 60

---

Tested on: pigweed (Amaranthus retroflexus)
Experiment: Test A preemergence, pigweed
Format: in vivo
Details: 125 g ai/ha, 0 to 100 scale (0 no effect, 100 complete control)
Listed next: entries and their corresponding Plant response rating, Pigweed.
Enter the number alone.

{"molecule": "CN1CC(c2cccc(Oc3ncc(F)cn3)c2)C(C(=O)Nc2ccccc2F)C1=O (single isomer, unassigned)", "target_under_test": "pigweed (Amaranthus retroflexus)", "Plant response rating, Pigweed": 0}
{"molecule": "O=C1NCC(c2cccc(COc3ccccc3)c2)C1C(=O)Nc1ccc(F)cc1F (centres unmarked)", "target_under_test": "pigweed (Amaranthus retroflexus)", "Plant response rating, Pigweed": 0}
{"molecule": "O=C1NCC(c2cccc(OCc3ccco3)c2)C1C(=O)Nc1cccc(F)c1F (centres unmarked)", "target_under_test": "pigweed (Amaranthus retroflexus)", "Plant response rating, Pigweed": 0}
{"molecule": "O=C1NCC(c2cccc(Oc3ccccn3)c2)C1C(=O)Nc1cccc(F)c1F (centres unmarked)", "target_under_test": "pigweed (Amaranthus retroflexus)", "Plant response rating, Pigweed": 0}
{"molecule": "O=C1NCC(c2cccc(Oc3ccc(F)cn3)c2)C1C(=O)Nc1cccc(F)c1F (single isomer, unassigned)", "target_under_test": "pigweed (Amaranthus retroflexus)", "Plant response rating, Pigweed": 60}
{"molecule": "O=C1NCC(c2cccc(Oc3ccc(C(F)(F)F)cn3)c2)C1C(=O)Nc1ccccc1F (single isomer, unassigned)", "target_under_test": "pigweed (Amaranthus retroflexus)", "Plant response rating, Pigweed": 30}
{"molecule": "O=C1NCC(c2cccc(Cn3ccc(C(F)(F)F)n3)c2)C1C(=O)Nc1ccc(F)cc1F (centres unmarked)", "target_under_test": "pigweed (Amaranthus retroflexus)", "Plant response rating, Pigweed": 0}
{"molecule": "O=C1NCC(c2cccc(OCC3CC3)c2)C1C(=O)Nc1ccccc1Cl (centres unmarked)", "target_under_test": "pigweed (Amaranthus retroflexus)", "Plant response rating, Pigweed": 0}

Incoming: // returns reported Plant response rating, Pigweed for input CN1CC(c2cccc(Sc3ccccc3)c2)C(C(=O)Nc2cccc(F)c2F)C1=O (single isomer, unassigned)
Outgoing: 0

Incoming: Param item = O=C1NCC(c2cccc(Cn3ccc(C(F)(F)F)n3)c2)C1C(=O)Nc1cccc(F)c1F (centres unmarked) ; retrieve measured Plant response rating, Pigweed.
Outgoing: 0

Incoming: Look up Plant response rating, Pigweed for this molecule: CN1CC(c2cccc(Oc3ncc(F)cc3F)c2)C(C(=O)Nc2ccccc2F)C1=O (single isomer, unassigned)
Outgoing: 0

Incoming: Data request, read-out Plant response rating, Pigweed, for O=C1NCC(c2cccc(OCc3ccccc3)c2)C1C(=O)Nc1ccccc1Cl (centres unmarked)
Outgoing: 0

Incoming: What does the data say about its Plant response rating, Pigweed? Entry: O=C1NCC(c2cccc(COc3ccccc3)c2)C1C(=O)Nc1cccc(F)c1F (centres unmarked)
Outgoing: 0

Incoming: I'd like to know its Plant response rating, Pigweed. The molecule in question is CC1(COc2cccc(C3CNC(=O)C3C(=O)Nc3ccccc3F)c2)COC1 (centres unmarked)
Outgoing: 0

Incoming: Can you look up the measured Plant response rating, Pigweed of CC1(COc2cccc(C3CNC(=O)C3C(=O)Nc3ccccc3C(F)(F)F)c2)COC1 (centres unmarked) for me?
Outgoing: 0

Incoming: Give the measured Plant response rating, Pigweed of CN1CC(c2cccc(Oc3ccc(F)cn3)c2)C(C(=O)Nc2ccccc2F)C1=O (single isomer, unassigned) .
Outgoing: 60
